System: OVCAR-5 ovarian
measurement protocol: NCI-60 one-dose screen, 48 h (100 = growth as untreated, 0 = no growth, -100 = all killed)
condition details: 10 µM unless noted
This is part of a sample that, as a whole, favours compounds with a hit. Of some 83,000 tested, about 20% had one in any assay.
value kind: growth (%)
Output spec: scalar in %, unitless text.

Entry COc1cc(/C=C\c2cc(/C=C\c3ccc(O)c(OC)c3)n(C(=O)Nc3ccc(C(F)(F)F)cc3)n2)ccc1O , system OVCAR-5 ovarian: what growth was measured?
115

Entry Cc1cc(C#Cc2ccc(C(C)(C)C)cc2)ccc1-n1c(/C=C/c2c(Cl)cccc2Cl)nc2ccccc2c1=O , system OVCAR-5 ovarian: what growth was measured?
106

Entry COc1cc(NCC(O)CN(CC(C)C)CC(C)C)c2ncccc2c1 (configuration not stated) , system OVCAR-5 ovarian: what growth was measured?
101

Entry COC(=O)OC1C(O[C@H]2C[C@H]3[C@@H]4CC=C5C[C@@H](O)CC[C@]5(C)[C@H]4CC[C@]3(C)[C@H]2[C@H](C)C(=O)CCC(C)C)OCC(O)C1OC1OCC(O)C(O)C1OC(=O)c1ccc(OC)cc1 (some centres not stated) , system OVCAR-5 ovarian: what growth was measured?
31.2

Entry CSC1=N/C(=C\c2cccc(OCc3ccc(Cl)cc3)c2)C(=O)N1 , system OVCAR-5 ovarian: what growth was measured?
106

Entry O/N=C/c1ccncc1 , system OVCAR-5 ovarian: what growth was measured?
116

Entry C#CCO[C@H]1CC[C@H](OCC#C)[C@@H]2[C@H]1[C@H]1C[C@@H]3[C@@]4(C)CCC[C@@](C)(C(=O)OC)[C@@H]4CC[C@@]23C=C1C(C)C , system OVCAR-5 ovarian: what growth was measured?
92.1

Entry CCN(CC)CC(=O)Nc1c(C)ccc(N)c1C , system OVCAR-5 ovarian: what growth was measured?
99.2

Entry C(=Nc1ccc(-c2ccc(N=Cc3ccccc3)cc2)cc1)c1ccccc1 , system OVCAR-5 ovarian: what growth was measured?
116

Entry C=C1C(=O)O[C@H]2[C@H]1CC/C(COC(=O)N[C@@H](Cc1c[nH]c3ccccc13)C(=O)OC)=C\CC[C@@]1(C)O[C@@H]21 , system OVCAR-5 ovarian: what growth was measured?
66

Entry Cc1nc(N)nc2c1CCC(Nc1ccccc1)S2 (configuration not stated) , system OVCAR-5 ovarian: what growth was measured?
100

Entry C=C(C)[C@@H]1CC[C@]2(C(=O)NC(COC(=O)C(Cl)Cl)(COC(=O)C(Cl)Cl)COC(=O)C(Cl)Cl)CC[C@]3(C)[C@H](CC[C@@H]4[C@@]5(C)CC[C@H](OC(C)=O)C(C)(C)[C@@H]5CC[C@]43C)[C@@H]12 , system OVCAR-5 ovarian: what growth was measured?
80.7

----------
System: A549/ATCC NSCLC
measurement protocol: NCI-60 one-dose screen, 48 h
condition details: 10 µM unless noted
Compounds without any hit were thinned out: in the full panel of roughly 83,000, 20% have a hit. Activity calls are given as the source filed them. How the source made its calls: active means growth percent below 10; inactive means the rest.
Respond with a class label; see true (1) = active, false (0) = inactive

So what was the verdict on CO[C@H](C(=O)[C@@H](O)[C@@H](C)O)[C@@H]1Cc2cc3cc(O[C@H]4C[C@@H](O[C@H]5C[C@@H](O)[C@H](O)C(C)O5)[C@H](O)C(C)O4)c(C)c(O)c3c(O)c2C(=O)[C@H]1O[C@H]1C[C@@H](O[C@H]2C[C@@H](O[C@H]3C[C@](C)(O)C(=O)C(C)O3)[C@@H](O)C(C)O2)[C@H](O)C(C)O1 (stereo partly specified) in this test?
true (1)

So what was the verdict on Nc1nc(N)c2cc(NCc3ccc(Cl)c(Cl)c3)ccc2n1 in this test?
true (1)

So what was the verdict on c1ccc2c(N=NSc3ncnc4nc[nH]c34)c3ccccc3nc2c1 in this test?
true (1)

So what was the verdict on O=C(CC(=O)c1cccc(Cl)c1)c1cccc(Cl)c1 in this test?
false (0)

So what was the verdict on COc1cc(/C=C/c2cc(/C=C/c3ccc(O)c(OC)c3)n(C(=O)Nc3ccc(F)c(Cl)c3)n2)ccc1O in this test?
true (1)

So what was the verdict on CSc1nc(N)c2[nH]c(-c3cc4ccccc4[nH]c3=O)nc2n1 in this test?
false (0)

----------
Test system: A549/ATCC NSCLC
measurement protocol: NCI-60 one-dose screen, 48 h (100 = growth as untreated, 0 = no growth, -100 = all killed)
condition details: 10 µM unless noted
This is part of a sample that, as a whole, favours compounds with a hit. Of some 83,000 tested, about 20% had one in any assay. Calls of active or inactive are those of the source. How the source made its calls: active means growth percent below 10; inactive means the rest.
Assignment: determine reported growth for the given molecules.

Requested read-out: growth. Entry: CCN(CCC#N)c1ccccc1
108% (inactive)

Requested read-out: growth. Entry: NC(=O)c1ccc[n+](Cc2ccccc2)c1
94.3% (inactive)

Requested read-out: growth. Entry: CC1(C)CN(CCNc2nccc(-c3c(-c4cccc(O)c4)nc4sccn34)n2)S(=O)(=O)N1
117% (inactive)

Requested read-out: growth. Entry: CCN1C(=O)C(C)C=C(C)C=C1C (stereo not drawn)
105% (inactive)

Requested read-out: growth. Entry: CCN(CC)CCNC(=O)n1cc(-c2ccncc2)c(-c2cc(Cl)cc(OC)c2)n1
49.5% (inactive)

Requested read-out: growth. Entry: Cc1cc(C#Cc2ccc(C(C)(C)C)cc2)ccc1-n1c(/C=C/c2c(Cl)cccc2Cl)nc2ccccc2c1=O
95.8% (inactive)

Requested read-out: growth. Entry: Oc1ccccc1-c1nnc(COc2ccc(Cl)cc2Cl)o1
54.5% (inactive)

Requested read-out: growth. Entry: NC(N)=N/N=C/c1cccc(Cl)c1Cl
87.9% (inactive)

----------
Test system: MDA-MB-435 melanoma
measurement protocol: NCI-60 one-dose screen, 48 h
condition details: 10 µM unless noted
The panel holds about 83,000 compounds, 20% with a hit somewhere; the sample as a whole holds those more often. Calls of active or inactive are those of the source. Rule for the calls: active = growth percent below 10; inactive = the rest.
Respond with a class label; see t for active, f for inactive

So what was the verdict on O=C1CCCN1C(O)CCN(Cc1ccccc1)Cc1ccc(Cl)cc1 (stereo not given) in this test?
f

So what was the verdict on COc1nccc2c(Sc3ccccc3)nc(N)nc12 in this test?
f

So what was the verdict on O=c1c2cc(Br)cc(Br)c2nc(-c2ccc(Cl)cc2)n1/N=C\c1ccccc1F in this test?
f

So what was the verdict on CCCCn1cnc2c(SCc3ccc([N+](=O)[O-])cc3)nc(N)nc21 in this test?
f

So what was the verdict on COc1ccc([C@H]2c3[nH]c4ccccc4c3C[C@H]3C(=O)N(CCCCCCC(=O)NO)CC(=O)N23)cc1 in this test?
f

So what was the verdict on NC(N)=N/N=C/c1ccc(Cl)cc1 in this test?
t

So what was the verdict on C=C(COC(C)=O)[C@H]1CC/C(C)=C/CC/C(C)=C/CC[C@@]2(C)O[C@H]2C1 in this test?
f

So what was the verdict on Clc1ccccc1CNc1c2ccccc2nc2ccccc12 in this test?
f

So what was the verdict on C/C(=N\NC(=O)CSc1nc2ccccc2c(=O)n1CCc1ccc(S(N)(=O)=O)cc1)c1ccc(Br)cc1 in this test?
f

So what was the verdict on COc1cnc2c(c1)C(=O)c1c-2n(CCCN2CCCC2)c(=O)c2cc(Cl)ccc12 in this test?
f

So what was the verdict on O=C(CC(=O)c1cccc(Cl)c1)c1cccc(Cl)c1 in this test?
f

So what was the verdict on CC(=O)NC1C(O[C@H]2C[C@H]3[C@@H]4CC=C5C[C@@H](O)CC[C@]5(C)[C@H]4CC[C@]3(C)[C@H]2[C@H](C)C(=O)CCC(C)C)OCC(O)C1O (stereo not given in full) in this test?
f

So what was the verdict on Clc1cc(Cl)cc(-c2cnc3nonc3n2)c1 in this test?
f

So what was the verdict on CCN(CC)c1cc(C)c(Cc2c(OC)ccc3ccccc23)cc1C in this test?
f

So what was the verdict on CC1(C)OC2OC3C(CN)OC(c4ccccc4)OC3C2O1 (stereo not given) in this test?
f

----------
Test system: KM12 colon
measurement protocol: NCI-60 one-dose screen, 48 h (100 = growth as untreated, 0 = no growth, -100 = all killed)
condition details: 10 µM unless noted
Experimental: Growth inhibition of the KM12 human tumor cell line is measured as a screen for anti-cancer activity. Cells are grown in 96 well plates and exposed to the test compound for 48 hours. Compounds are tested at a single concentration, which is 10^-5 M for most compounds. The reported endpoint is percent growth (GI% or GIPRCNT), where numbers from 0 - 100% represent growth inhibition, and numbers from -100% - 0 represent cell death. For example, a value of 40 represents 60% growth inhibition. […]
About 83,000 compounds went through this panel and 20% of them were active in at least one assay; those are over-represented in the sample as a whole. Calls of active or inactive are those of the source. Rule for the calls: active = growth percent below 10; inactive = the rest.
Assignment: determine reported growth for the given molecules.

Requested read-out: growth. Entry: CC(=O)c1ccc(N2C(=O)c3ccc(Oc4ccccc4)cc3C2=O)cc1
95.6% (inactive)

Requested read-out: growth. Entry: COc1cc(/C=C2\CN(C(=O)OC(C)(C)C)C/C(=C\c3ccc(O)c(OC)c3)C2=O)ccc1O
99.1% (inactive)

Requested read-out: growth. Entry: Clc1ccc(C2=NN[C@H](c3cn(-c4ccccc4)nc3-c3ccccc3)C2)cc1
74% (inactive)
